Hello, the source for this data is patent US20240041877A1, in case you need it.

test name: Study KAR5585-101 Part 1 (SAD): plasma pharmacokinetics after a single oral dose of KAR5585, fasting and fed (incl. dose proportionality and food effect)
assay context: human, plasma, po, 2000 mg, Cmax, KAR5417 after 2000 mg KAR5585 single oral, fasted, Cohort 6; Mean
reported endpoint: Cmax (ng/mL)
Answer with a number only, understood to be in ng/mL.

**Query** Name the recorded Cmax of the item Nc1nc(O[C@H](c2ccc(Cl)cc2-c2ccccc2)C(F)(F)F)cc(N2CCC3(CC2)CN[C@H](C(=O)O)C3)n1 [KAR5417] in your answer.
**Result** 1080

###

test name: Study KAR5585-101 Part 1 (SAD): plasma pharmacokinetics after a single oral dose of KAR5585, fasting and fed (incl. dose proportionality and food effect)
assay context: human, plasma, po, 400 mg, t1 (t½, apparent terminal half-life), 400 mg KAR5585 single oral, fasted, Cohort 3A; Geo. Mean
reported endpoint: half-life (h)
Answer with a number only, understood to be in h.

**Query** Name the recorded half-life of the item CCOC(=O)[C@@H]1CC2(CCN(c3cc(O[C@H](c4ccc(Cl)cc4-c4ccccc4)C(F)(F)F)nc(N)n3)CC2)CN1 in your answer.
**Result** 4.04
